- target_desc: Inhibitor of nuclear factor kappa-B kinase subunit beta (Homo sapiens)
- Sequence (O14920 whole entry): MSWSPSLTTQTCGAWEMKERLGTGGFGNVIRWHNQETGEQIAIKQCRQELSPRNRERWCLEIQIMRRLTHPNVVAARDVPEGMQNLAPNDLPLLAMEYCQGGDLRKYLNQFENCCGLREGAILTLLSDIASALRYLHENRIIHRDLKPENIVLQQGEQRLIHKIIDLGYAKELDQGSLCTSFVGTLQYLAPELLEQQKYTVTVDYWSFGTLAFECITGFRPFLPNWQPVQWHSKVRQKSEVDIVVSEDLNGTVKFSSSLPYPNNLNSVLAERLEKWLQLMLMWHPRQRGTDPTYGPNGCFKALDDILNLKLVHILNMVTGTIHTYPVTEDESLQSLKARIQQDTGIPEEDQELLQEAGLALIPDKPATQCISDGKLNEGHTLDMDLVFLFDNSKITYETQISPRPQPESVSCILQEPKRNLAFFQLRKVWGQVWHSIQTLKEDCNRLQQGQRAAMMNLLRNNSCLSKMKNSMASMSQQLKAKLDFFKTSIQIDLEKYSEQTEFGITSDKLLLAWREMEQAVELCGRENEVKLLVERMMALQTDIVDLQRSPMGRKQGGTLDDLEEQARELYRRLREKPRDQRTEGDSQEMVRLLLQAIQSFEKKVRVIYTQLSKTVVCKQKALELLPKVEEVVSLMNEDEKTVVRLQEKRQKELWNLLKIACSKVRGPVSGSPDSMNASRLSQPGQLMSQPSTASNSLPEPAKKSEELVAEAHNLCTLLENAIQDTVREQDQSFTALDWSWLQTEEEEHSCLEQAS
- method_summary: Inhibition of FLAG-tagged human recombinant IKKbeta phosphorylation expressed in baculovirus infected insect Sf9 cells after 1 hr by luminescence assay
metric_name: pIC50
API: returns pIC50 as number; meaning -log10 of concentration in mol/L.

CC(C)=CC(=O)O[C@@H]1CC(C)(C)C[C@H]2C3=CC[C@@H]4[C@@]5(C)CC[C@H](OC(=O)/C=C/c6ccccc6)C(C)(C)[C@@H]5CC[C@@]4(C)[C@]3(C)CC[C@@]12C(=O)O = 6.03
C/C=C(\C)C(=O)O[C@@H]1CC(C)(C)C[C@H]2C3=CC[C@@H]4[C@@]5(C)CC[C@H](O)C(C)(C)[C@@H]5CC[C@@]4(C)[C@]3(C)CC[C@@]12C(=O)O = 5.58

Item: C/C=C(\C)C(=O)O[C@@H]1CC(C)(C)C[C@H]2C3=CC[C@@H]4[C@@]5(C)CC[C@H](OC(=O)/C=C/c6ccccc6)C(C)(C)[C@@H]5CC[C@@]4(C)[C@]3(C)CC[C@@]12C(=O)O | pIC50: 5.92
